Test: Lipophilicity (logD), n-octanol/PBS pH 7.4 shake-flask
Format: physicochemical
Conditions: n-octanol/PBS pH 7.4, room temperature
PROPERTY: logD

>>> numeric_result("Cc1ncc(-c2ccc3nc(N[11C](C)=O)sc3c2)cc1NC(=O)OC1CCCCC1 [[^11C]PK68]")
4

// data source = paper PMC8924334
